Below are ΔTm values recorded for Tyrosine-protein kinase JAK1 (Homo sapiens) (UniProt P23458).

- compound: "COc1cccc(-c2cc(=O)c3ccccc3o2)c1N"
  measure unit: "°C"
  ΔTm: 1
- compound: "CC(C)(C)n1nc(-c2ccc(Cl)cc2)c2c(N)ncnc21"
  measure unit: "°C"
  ΔTm: 0.3
- compound: "COc1ccc(S(=O)(=O)N(CCO)c2ccccc2CN(C)C/C=C/c2ccc(Cl)cc2)cc1"
  measure unit: "°C"
  ΔTm: -0.5
- compound: "CN1CCC(Nc2ncc3ncnc(Nc4ccc(F)c(Cl)c4)c3n2)CC1 [FALNIDAMOL]"
  measure unit: "°C"
  ΔTm: 0.5
- compound: "Cc1ccc(NC(=O)c2cccc(N(C)C)c2)cc1NC(=O)c1ccc(O)cc1"
  measure unit: "°C"
  ΔTm: 0.1
- compound: "CCCCc1c(-c2ccc(O)cc2)[nH]c2nccnc12 [ALOISINE A]"
  measure unit: "°C"
  ΔTm: 0.5
- compound: "O=C1Nc2ccc(S(=O)(=O)O)cc2/C1=C1/Nc2ccccc2/C1=N\\O"
  measure unit: "°C"
  ΔTm: 4.3
- compound: "Cc1nc(N)sc1-c1ccnc(Nc2cccc([N+](=O)[O-])c2)n1"
  measure unit: "°C"
  ΔTm: 4.8
- compound: "CCOc1cc2ncnc(Nc3cccc(Br)c3)c2cc1OCC"
  measure unit: "°C"
  ΔTm: 2.7
- compound: "O=C(Nc1cccc(Nc2nccc(Nc3cccc(C(F)(F)F)c3)n2)c1)C1CC1 [ANILINOPYRIMIDINE1]"
  measure unit: "°C"
  ΔTm: 2.6
- compound: "CCOC(=O)c1cnc2oc3ccc(O)cc3c2c1-c1ccccc1"
  measure unit: "°C"
  ΔTm: 8.6
- compound: "COc1cc2ncnc(Nc3cccc(O)c3)c2cc1OC"
  measure unit: "°C"
  ΔTm: 2.1
- compound: "Cn1cc(C2=C(c3cn(CCCN)c4ccccc34)C(=O)NC2=O)c2ccccc21"
  measure unit: "°C"
  ΔTm: -0.5
- compound: "Brc1c(Br)c(Br)c2[nH]nnc2c1Br [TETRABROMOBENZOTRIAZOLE]"
  measure unit: "°C"
  ΔTm: 0.7
- compound: "O=C1NC(=O)c2c1c1c3ccccc3[nH]c1n1cncc21 [ISOGRANULATIMIDE]"
  measure unit: "°C"
  ΔTm: 7.5
- compound: "CN(C)S(=O)(=O)c1ccc2c(c1)/C(=C/c1cc3c([nH]1)CCCC3)C(=O)N2"
  measure unit: "°C"
  ΔTm: 3.6
- compound: "C=CNC#N"
  measure unit: "°C"
  ΔTm: -0.9
- compound: "O=C1Nc2ccccc2/C1=C1/Nc2ccccc2/C1=N\\O"
  measure unit: "°C"
  ΔTm: 13.1
- compound: "Oc1ccc(-c2nc(-c3ccc(F)cc3)c(-c3ccncc3)[nH]2)cc1"
  measure unit: "°C"
  ΔTm: 4.4
- compound: "NC1=N/C(=C2/CCNC(=O)c3[nH]ccc32)C(=O)N1 [DEBROMOHYMENIALDISINE]"
  measure unit: "°C"
  ΔTm: -0.2
- compound: "CN(C)c1ccc(CC2C(=O)Nc3ccccc32)cc1 (configuration not stated)"
  measure unit: "°C"
  ΔTm: 5.5
- compound: "O=C1C(Cl)=C(N2C(=O)CCC2=O)C(=O)c2ccccc21"
  measure unit: "°C"
  ΔTm: -2.9

* * *

Below are ΔTm values recorded for Serine/threonine-protein kinase Nek6 (Homo sapiens).

- molecule: "COC1=C2C[C@@H](C)C[C@H](OC)[C@H](O)[C@@H](C)/C=C(\\C)[C@H](OC(N)=O)[C@@H](OC)/C=C\\C=C(/C)C(=O)NC(=CC1=O)C2=O"
  ΔTm / °C: -0.2
- molecule: "Cc1ccc(NC(=O)c2ccc(CN3CCN(C)CC3)cc2)cc1Nc1nccc(-c2cccnc2)n1"
  ΔTm / °C: 0.4
- molecule: "Nc1nccc(-c2c(-c3ccc(F)cc3)ncn2C2CCNCC2)n1"
  ΔTm / °C: -0.2
- molecule: "CSc1nc(-c2ccc(F)cc2)c(-c2ccnc(NC(C)c3ccccc3)c2)[nH]1 (racemic)"
  ΔTm / °C: 0.5
- molecule: "Cc1nc(Nc2ncc(C(=O)Nc3c(C)cccc3Cl)s2)cc(N2CCN(CCO)CC2)n1"
  ΔTm / °C: 0.2
- molecule: "N=C(N)NCCNS(=O)(=O)c1cccc2cnccc12"
  ΔTm / °C: 0.2
- molecule: "O=C1Nc2ccc(S(=O)(=O)O)cc2/C1=C1/Nc2ccccc2/C1=N\\O"
  ΔTm / °C: 0.8
- molecule: "CCOC(=O)c1cnc2oc3ccc(O)cc3c2c1-c1ccccc1"
  ΔTm / °C: -0.5
- molecule: "CC(=O)O/N=C1/C(=C2/C(=O)Nc3cc(Br)ccc32)Nc2ccccc21"
  ΔTm / °C: 0.7
- molecule: "C=CNC#N"
  ΔTm / °C: -0.2
- molecule: "NCCNc1ncc(C(N)=O)c(Nc2cccc(C(F)(F)F)c2)n1"
  ΔTm / °C: 2
- molecule: "CN(c1cccnc1)c1cc2c(Nc3ccc(F)c(Cl)c3)c(C#N)cnc2cn1"
  ΔTm / °C: 1.5
- molecule: "O=C1Cc2c([nH]c3ccc([N+](=O)[O-])cc23)-c2ccccc2N1"
  ΔTm / °C: 0.8
- molecule: "COc1ccc(CNC(=O)Nc2ncc([N+](=O)[O-])s2)cc1"
  ΔTm / °C: 0.4
- molecule: "O=C(Nc1cccc(Nc2nccc(Nc3cccc(C(F)(F)F)c3)n2)c1)C1CC1"
  ΔTm / °C: 1.7

* * *

- target desc: Serine/threonine-protein kinase PLK4 (Homo sapiens)
- Sequence (whole entry): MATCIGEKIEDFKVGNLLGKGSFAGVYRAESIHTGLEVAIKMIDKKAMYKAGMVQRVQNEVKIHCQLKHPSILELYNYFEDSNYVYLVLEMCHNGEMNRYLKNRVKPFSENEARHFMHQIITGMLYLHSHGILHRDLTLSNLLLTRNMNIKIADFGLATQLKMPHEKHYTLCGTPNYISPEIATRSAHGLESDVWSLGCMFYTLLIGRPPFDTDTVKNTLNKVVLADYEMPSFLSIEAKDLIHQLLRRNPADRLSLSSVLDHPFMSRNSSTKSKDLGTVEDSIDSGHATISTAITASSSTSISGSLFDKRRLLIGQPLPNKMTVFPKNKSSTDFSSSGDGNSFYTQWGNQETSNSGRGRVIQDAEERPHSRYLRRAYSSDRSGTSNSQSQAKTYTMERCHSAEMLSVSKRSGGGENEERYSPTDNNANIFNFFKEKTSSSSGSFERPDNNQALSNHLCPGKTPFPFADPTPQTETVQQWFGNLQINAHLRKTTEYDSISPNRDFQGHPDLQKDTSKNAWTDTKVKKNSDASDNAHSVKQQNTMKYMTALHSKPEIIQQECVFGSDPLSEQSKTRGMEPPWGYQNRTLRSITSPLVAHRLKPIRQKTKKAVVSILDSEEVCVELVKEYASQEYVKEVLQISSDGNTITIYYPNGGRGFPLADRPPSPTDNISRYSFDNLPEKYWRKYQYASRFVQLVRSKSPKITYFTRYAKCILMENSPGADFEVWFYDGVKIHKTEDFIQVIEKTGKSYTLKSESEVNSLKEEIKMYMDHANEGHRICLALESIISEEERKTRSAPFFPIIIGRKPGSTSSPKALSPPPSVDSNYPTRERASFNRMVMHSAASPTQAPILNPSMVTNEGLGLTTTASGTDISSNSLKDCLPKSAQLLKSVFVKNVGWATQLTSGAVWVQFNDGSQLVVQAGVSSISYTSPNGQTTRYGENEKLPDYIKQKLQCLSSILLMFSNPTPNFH
In this section, each of the compounds is paired with its reported ΔTm.
experimental endpoint: ΔTm (°C)

- compound: "O=C1Nc2ccc(I)cc2/C1=C1/Nc2ccccc2/C1=N\\O"
  experimental endpoint: "ΔTm"
  measured result: 8.7
- compound: "O=c1c(-c2ccc(O)cc2)coc2cc(O)cc(O)c12"
  experimental endpoint: "ΔTm"
  measured result: 0.4
- compound: "CC(C)n1cnc2c(NCc3ccccc3)nc(NCCCO)nc21"
  experimental endpoint: "ΔTm"
  measured result: 0.3
- compound: "O=c1ccc2ccc(O)c(O)c2o1 [DAPHNETIN]"
  experimental endpoint: "ΔTm"
  measured result: 0.3
- compound: "CC(C)(C)n1nc(-c2ccc(Cl)cc2)c2c(N)ncnc21"
  experimental endpoint: "ΔTm"
  measured result: 4.1
- compound: "N#C/C(=C\\c1ccc(O)c(O)c1)C(=O)NCc1ccccc1"
  experimental endpoint: "ΔTm"
  measured result: 0.9
- compound: "CC(C)N(CCO)c1nc(Nc2cccc(Cl)c2)c2ncn(C(C)C)c2n1"
  experimental endpoint: "ΔTm"
  measured result: 1.2
- compound: "O=c1cc(-c2ccc(O)cc2)oc2cc(O)cc(O)c12"
  experimental endpoint: "ΔTm"
  measured result: 5.2
- compound: "CC(C)c1nn(-c2c(Cl)cccc2Cl)c2nc(Cc3ccc(OCCO)cc3)[nH]c(=O)c12"
  experimental endpoint: "ΔTm"
  measured result: 2.9
- compound: "Nc1n[nH]c2nc3ccccc3nc12 [QUINOXALINE1]"
  experimental endpoint: "ΔTm"
  measured result: 1.5
- compound: "C=CNC#N"
  experimental endpoint: "ΔTm"
  measured result: 0.1
- compound: "Nc1nccc(-c2c(-c3ccc(F)cc3)ncn2C2CCNCC2)n1"
  experimental endpoint: "ΔTm"
  measured result: 0.2
